Target: human IL-6 (human, UniProt P05231 30-212)
Sequence (P05231 30-212 limits assumed): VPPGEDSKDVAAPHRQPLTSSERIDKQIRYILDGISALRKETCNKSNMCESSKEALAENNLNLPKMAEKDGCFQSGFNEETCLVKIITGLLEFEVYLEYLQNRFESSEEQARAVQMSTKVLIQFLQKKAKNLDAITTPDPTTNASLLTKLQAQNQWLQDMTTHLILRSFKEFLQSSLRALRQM
Experiment: SPR (Biacore), supernatant antibody on Protein A chip, IL-6 flowed, 37 C
Note to self: use Yes only for Kd readings below 0.5 nM; a reading exactly at 0.5 nM still gets No.

A selection of reference data follows.
BINDER	ANSWER LABEL
anti-IL-6 antibody, heavy chain T65W, G66D / light chain M32L, M50D, N52S, M88Q (antibody, human IgG1, V domains shown, Human IgG1) VH: EVQLVESGGGLVQPGGSLRLSCAASGFTFSPFAMSWVRQAPGKGLEWVAKISPGGSWTYYSDTVWDRFTFSLDTSKSTAYLQMNSLRAEDTAVYYCARQLWGYYALDIWGQGTLVTVSS VL: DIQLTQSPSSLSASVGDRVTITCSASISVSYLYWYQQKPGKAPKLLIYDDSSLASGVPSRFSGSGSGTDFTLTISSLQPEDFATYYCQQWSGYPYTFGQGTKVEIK	Yes
anti-IL-6 antibody, heavy chain T63F, G66D / light chain M32L, M50D, N52S, M88Q (antibody, human IgG1, V domains shown, Human IgG1) VH: EVQLVESGGGLVQPGGSLRLSCAASGFTFSPFAMSWVRQAPGKGLEWVAKISPGGSWTYYSDFVTDRFTFSLDTSKSTAYLQMNSLRAEDTAVYYCARQLWGYYALDIWGQGTLVTVSS VL: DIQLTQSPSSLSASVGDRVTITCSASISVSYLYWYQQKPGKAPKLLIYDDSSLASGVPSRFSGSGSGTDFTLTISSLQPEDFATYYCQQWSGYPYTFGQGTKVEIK	Yes
anti-IL-6 antibody, heavy chain I51Y, G66D / light chain M32L, M50D, N52S, M88Q (antibody, human IgG1, V domains shown, Human IgG1) VH: EVQLVESGGGLVQPGGSLRLSCAASGFTFSPFAMSWVRQAPGKGLEWVAKYSPGGSWTYYSDTVTDRFTFSLDTSKSTAYLQMNSLRAEDTAVYYCARQLWGYYALDIWGQGTLVTVSS VL: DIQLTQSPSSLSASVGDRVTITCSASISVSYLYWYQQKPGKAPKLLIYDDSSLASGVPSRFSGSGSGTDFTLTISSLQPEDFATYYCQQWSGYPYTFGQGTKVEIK	No
anti-IL-6 antibody, heavy chain I51D, G66D / light chain M32L, M50D, N52S, M88Q (antibody, human IgG1, V domains shown, Human IgG1) VH: EVQLVESGGGLVQPGGSLRLSCAASGFTFSPFAMSWVRQAPGKGLEWVAKDSPGGSWTYYSDTVTDRFTFSLDTSKSTAYLQMNSLRAEDTAVYYCARQLWGYYALDIWGQGTLVTVSS VL: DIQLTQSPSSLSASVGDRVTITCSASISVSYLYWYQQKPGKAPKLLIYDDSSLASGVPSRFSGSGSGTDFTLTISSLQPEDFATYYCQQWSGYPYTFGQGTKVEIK	No
anti-IL-6 antibody, heavy chain T65D, G66D / light chain M32L, M50D, N52S, M88Q (antibody, human IgG1, V domains shown, Human IgG1) VH: EVQLVESGGGLVQPGGSLRLSCAASGFTFSPFAMSWVRQAPGKGLEWVAKISPGGSWTYYSDTVDDRFTFSLDTSKSTAYLQMNSLRAEDTAVYYCARQLWGYYALDIWGQGTLVTVSS VL: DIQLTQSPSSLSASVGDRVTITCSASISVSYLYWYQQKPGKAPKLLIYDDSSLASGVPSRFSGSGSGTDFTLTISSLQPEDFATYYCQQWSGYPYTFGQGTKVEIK	Yes
anti-IL-6 antibody, heavy chain I51V, G66D / light chain M32L, M50D, N52S, M88Q (antibody, human IgG1, V domains shown, Human IgG1) VH: EVQLVESGGGLVQPGGSLRLSCAASGFTFSPFAMSWVRQAPGKGLEWVAKVSPGGSWTYYSDTVTDRFTFSLDTSKSTAYLQMNSLRAEDTAVYYCARQLWGYYALDIWGQGTLVTVSS VL: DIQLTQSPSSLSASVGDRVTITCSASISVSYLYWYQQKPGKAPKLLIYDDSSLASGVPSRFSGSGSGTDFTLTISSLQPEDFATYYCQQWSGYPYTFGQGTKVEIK	No
anti-IL-6 antibody, heavy chain T65E, G66D / light chain M32L, M50D, N52S, M88Q (antibody, human IgG1, V domains shown, Human IgG1) VH: EVQLVESGGGLVQPGGSLRLSCAASGFTFSPFAMSWVRQAPGKGLEWVAKISPGGSWTYYSDTVEDRFTFSLDTSKSTAYLQMNSLRAEDTAVYYCARQLWGYYALDIWGQGTLVTVSS VL: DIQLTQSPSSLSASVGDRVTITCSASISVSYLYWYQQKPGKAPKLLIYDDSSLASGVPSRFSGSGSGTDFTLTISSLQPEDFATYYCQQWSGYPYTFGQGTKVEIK	Yes
anti-IL-6 antibody, heavy chain T65S, G66D / light chain M32L, M50D, N52S, M88Q (antibody, human IgG1, V domains shown, Human IgG1) VH: EVQLVESGGGLVQPGGSLRLSCAASGFTFSPFAMSWVRQAPGKGLEWVAKISPGGSWTYYSDTVSDRFTFSLDTSKSTAYLQMNSLRAEDTAVYYCARQLWGYYALDIWGQGTLVTVSS VL: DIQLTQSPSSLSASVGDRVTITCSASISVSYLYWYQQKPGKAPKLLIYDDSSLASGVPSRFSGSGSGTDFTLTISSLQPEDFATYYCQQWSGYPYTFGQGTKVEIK	Yes

Task: Check if Kd falls below 0.5 nM for anti-IL-6 antibody, heavy chain T65A, G66D / light chain M32L, M50D, N52S, M88Q (antibody, human IgG1, V domains shown, Human IgG1) VH: EVQLVESGGGLVQPGGSLRLSCAASGFTFSPFAMSWVRQAPGKGLEWVAKISPGGSWTYYSDTVADRFTFSLDTSKSTAYLQMNSLRAEDTAVYYCARQLWGYYALDIWGQGTLVTVSS VL: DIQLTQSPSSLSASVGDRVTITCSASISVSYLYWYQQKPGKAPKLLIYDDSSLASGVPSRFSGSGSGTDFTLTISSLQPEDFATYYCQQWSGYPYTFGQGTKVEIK .
Result: Yes

Task: Also check anti-IL-6 antibody, heavy chain I51S, G66D / light chain M32L, M50D, N52S, M88Q (antibody, human IgG1, V domains shown, Human IgG1) VH: EVQLVESGGGLVQPGGSLRLSCAASGFTFSPFAMSWVRQAPGKGLEWVAKSSPGGSWTYYSDTVTDRFTFSLDTSKSTAYLQMNSLRAEDTAVYYCARQLWGYYALDIWGQGTLVTVSS VL: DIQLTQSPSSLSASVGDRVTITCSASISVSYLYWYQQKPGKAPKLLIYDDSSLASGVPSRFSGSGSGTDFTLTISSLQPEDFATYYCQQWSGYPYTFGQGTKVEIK
Result: Yes
